# Test system: NCI-H226 lung
# assay.name: NCI tumour cell line growth inhibition, 48 h
Documented GI50 across a set of compounds

Would you please look over these solved cases?
sample.smiles	target.entity	GI50
Clc1ccc2c(N3CCN(c4ccnc(NC5CCCCC5)n4)CC3)ccnc2c1	NCI-H226 lung	3.41 µM
C[C@]12CC[C@@H]3c4ccc(O)cc4CC[C@H]3[C@@H]1CC[C@@H]2NS(=O)(=O)c1ccc(Cl)cc1	NCI-H226 lung	6.43 µM

**Query** Look up GI50 of Oc1c(Br)cc(Br)c2ccc(Cn3cc(-c4ccc(C(F)(F)F)cc4)nn3)nc12 and report it.
**Result** 4.46 µM

**Query** Look up GI50 of CN[C@@H](C)C(=O)N[C@H]1CCS[C@H]2CC(C)(C)[C@@H](C(=O)N[C@H]3c4ccccc4C[C@H]3OCC#CC#CCO[C@@H]3Cc4ccccc4[C@@H]3NC(=O)[C@H]3N4C(=O)[C@@H](NC(=O)[C@H](C)NC)CCS[C@H]4CC3(C)C)N2C1=O and report it.
**Result** > 50 µM

**Query** Look up GI50 of O=C(C[n+]1cccc2cc(Cl)ccc21)c1ccc2c(c1)CCCC2 and report it.
**Result** 1.48 µM

**Query** Look up GI50 of Nc1ccc(S(=O)(=O)c2ccc(N)cc2)cc1 and report it.
**Result** > 100 µM

**Query** Look up GI50 of CC[C@H](C)[C@H](NC(=O)c1ccccn1)C(=O)N(C)[C@H](C[C@@H](OC(C)=O)c1nc(C(=O)N[C@@H](Cc2ccccc2)C[C@H](C)C(=O)OC)cs1)C(C)C and report it.
**Result** 45 µM
